Target: T1, hu-CD74 antigen (R&D SYSTEMS catalog #3590-CD-050) (human, UniProt P04233-2 73-232, limits assumed)
T1 construct: Bought antigen; also called rhCD74; human CD74
T1 sequence (looked up): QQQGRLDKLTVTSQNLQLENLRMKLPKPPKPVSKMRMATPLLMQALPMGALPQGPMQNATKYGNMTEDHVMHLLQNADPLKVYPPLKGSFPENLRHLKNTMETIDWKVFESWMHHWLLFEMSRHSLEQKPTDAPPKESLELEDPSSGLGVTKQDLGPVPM
Assay: SPR (Biacore T200), captured on anti-human Fc, rhCD74 analyte
RECORDED_ENDPOINT: kon (M⁻¹ s⁻¹)
Use M⁻¹ s⁻¹ as the unit, but write only the number.

**Query** Provide one value: measured kon of 1275-D10 light chain paired with HC 1251-A06 (SEQ ID NO: 310) (antibody, human IgG1, V domains shown) VH: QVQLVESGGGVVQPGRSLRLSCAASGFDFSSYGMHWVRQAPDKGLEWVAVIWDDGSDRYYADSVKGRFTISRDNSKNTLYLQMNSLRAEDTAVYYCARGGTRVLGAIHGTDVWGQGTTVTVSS VL: DIQMTQSPSSLSASVGDRVTITCRASQGVFSWLAWYQQKPEKAPKSLIYNATQLQSGVPSRFSGSGSGTDFTLTISSLQPEDFATYYCQQYYYYPLTFGGGTKVEIK
**Result** 420000
